# targetUnderTest: T1, human MSLN-R3-3 polypeptide (human)
# T1 construct: also called human MSLN-R3-3 protein; hMSLN-R3-3
# experimentalDetails: ELISA, coated MSLN-R3-3;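 note: chimeric antibodies in serial dilution bound to plate-coated antigen for 2 h at 37 °C, with a negative control antibody alongside, and TMB colour development stopped with HCl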
Listed below: OD450 at 10 nM values for each entry.
measure: OD450 at 10 nM (OD450)

[[record]]
binder = "S009-F1.57.1 (antibody, human IgG1, kappa, V domains shown, Human-murine chimeric antibody, human IgG1/kappa constant regions) VH: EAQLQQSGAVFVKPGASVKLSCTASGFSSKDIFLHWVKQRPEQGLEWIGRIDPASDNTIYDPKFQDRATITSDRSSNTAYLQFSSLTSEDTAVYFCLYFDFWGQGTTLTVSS VL: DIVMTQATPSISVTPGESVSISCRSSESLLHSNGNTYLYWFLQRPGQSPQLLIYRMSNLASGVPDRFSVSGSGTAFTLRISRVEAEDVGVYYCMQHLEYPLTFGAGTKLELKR"
measvalue = 0.07

[[record]]
binder = "S009-F1.62.9 (antibody, human IgG1, kappa, V domains shown, Human-murine chimeric antibody, human IgG1/kappa constant regions) VH: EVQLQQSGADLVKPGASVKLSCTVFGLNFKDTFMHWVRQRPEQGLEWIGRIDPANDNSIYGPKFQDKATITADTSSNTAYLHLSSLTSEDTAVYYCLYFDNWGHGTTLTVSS VL: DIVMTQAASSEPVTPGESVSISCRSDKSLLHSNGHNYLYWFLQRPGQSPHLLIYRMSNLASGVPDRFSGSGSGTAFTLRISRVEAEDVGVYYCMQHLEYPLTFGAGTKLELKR"
measvalue = 0.07

[[record]]
binder = "S009-F1.2.12 (antibody, human IgG1, kappa, V domains shown) VH: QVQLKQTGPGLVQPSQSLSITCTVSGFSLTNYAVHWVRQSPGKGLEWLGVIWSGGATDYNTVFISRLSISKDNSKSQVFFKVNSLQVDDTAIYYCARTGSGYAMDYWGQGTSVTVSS VL: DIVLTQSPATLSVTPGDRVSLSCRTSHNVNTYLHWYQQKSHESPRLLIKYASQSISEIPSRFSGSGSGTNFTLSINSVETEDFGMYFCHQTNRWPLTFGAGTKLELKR"
measvalue = 0.08

[[record]]
binder = "S009-F1.56.1 (antibody, human IgG1, kappa, V domains shown, Human-murine chimeric antibody, human IgG1/kappa constant regions) VH: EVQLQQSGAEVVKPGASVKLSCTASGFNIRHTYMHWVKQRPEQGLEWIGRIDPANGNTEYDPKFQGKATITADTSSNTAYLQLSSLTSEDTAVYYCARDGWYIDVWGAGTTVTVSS VL: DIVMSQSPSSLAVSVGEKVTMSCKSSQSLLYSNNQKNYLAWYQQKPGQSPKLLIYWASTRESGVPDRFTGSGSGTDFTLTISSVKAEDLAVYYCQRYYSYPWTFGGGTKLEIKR"
measvalue = 0.08

